Organism: Rattus norvegicus
Experiment: Open TG-GATES - Regimen: Single
Assay type: toxicity, organism-based, Sprague-Dawley
Design: regimen Single, gender Male, age 6 weeks
Conditions: in vivo, po, 0 mg/kg, 6 h, tissue Blood, route gavage, dose level Control
MEASURE NAME: Plat (x10_4/uL)
Please respond with the number in x10_4/uL and leave the unit unwritten.

Guide cases for Plat, answers given:
{"COMPOUND": "Nc1c2c(nc3ccccc13)CCCC2 [TACRINE]", "OBSERVED MEASUREMENT": 115.4}
{"COMPOUND": "CN1C(=O)CCS(=O)(=O)C1c1ccc(Cl)cc1 (stereo not drawn) [CHLORMEZANONE]", "OBSERVED MEASUREMENT": 113.5}
{"COMPOUND": "CNC(=C[N+](=O)[O-])NCCSCc1ccc(CN(C)C)o1 [RANITIDINE]", "OBSERVED MEASUREMENT": 123.3}
{"COMPOUND": "COC(=O)C1=C(C)NC(C)=C(C(=O)OC)C1c1ccccc1[N+](=O)[O-] [NIFEDIPINE]", "OBSERVED MEASUREMENT": 127.7}
{"COMPOUND": "CC(C)NNC(=O)c1ccncc1 [IPRONIAZID]", "OBSERVED MEASUREMENT": 115.7}

Here is the next item to consider.
Given Cc1nnc2n1-c1ccc(Cl)cc1C(c1ccccc1Cl)=NC2 [TRIAZOLAM] , state its recorded Plat.
133.4

----------
Species on record: Rattus norvegicus
Assay: Open TG-GATES - Regimen: Daily Repeat
Format: toxicity, organism-based, Sprague-Dawley
Design: regimen Daily Repeat, gender Male, age 6 weeks
Settings: in vivo, po, 0 mg/kg, […], tissue Plasma, route gavage, dose level Control, time 14 day
MEASURE NAME: gamma-GTP (IU/L)
The figure you give is taken to be in IU/L; do not add the unit.

Consider the worked cases shown below.
{"MOLECULE": "Nc1c2c(nc3ccccc13)CCCC2 [TACRINE]", "gamma-GTP / IU/L": 1.2}
{"MOLECULE": "CN(C)CCC(c1ccc(Cl)cc1)c1ccccn1 (stereo not drawn) [CHLORPHENIRAMINE]", "gamma-GTP / IU/L": 1}
{"MOLECULE": "Brc1ccccc1 [BROMOBENZENE]", "gamma-GTP / IU/L": 1}
{"MOLECULE": "CN/C(=N/CCSCc1nc[nH]c1C)NC#N [CIMETIDINE]", "gamma-GTP / IU/L": 1}
{"MOLECULE": "CC(C)NNC(=O)c1ccncc1 [IPRONIAZID]", "gamma-GTP / IU/L": 1.6}
{"MOLECULE": "CCOc1ccc(NC(C)=O)cc1 [PHENACETIN]", "gamma-GTP / IU/L": 1.2}
{"MOLECULE": "CN1C(=O)CCS(=O)(=O)C1c1ccc(Cl)cc1 (stereo not drawn) [CHLORMEZANONE]", "gamma-GTP / IU/L": 1}
{"MOLECULE": "CNC(=C[N+](=O)[O-])NCCSCc1ccc(CN(C)C)o1 [RANITIDINE]", "gamma-GTP / IU/L": 1}
{"MOLECULE": "NC1=NC(=O)C(c2ccccc2)O1 (stereo not drawn) [PEMOLINE]", "gamma-GTP / IU/L": 1}
{"MOLECULE": "COC(=O)C1=C(C)NC(C)=C(C(=O)OC)C1c1ccccc1[N+](=O)[O-] [NIFEDIPINE]", "gamma-GTP / IU/L": 1}

Please report the recorded gamma-GTP for Cc1nnc2n1-c1ccc(Cl)cc1C(c1ccccc1Cl)=NC2 [TRIAZOLAM] .
1.4

Now consider O=C(OC[C@H]1O[C@@H](OC(=O)c2cc(O)c(O)c(OC(=O)c3cc(O)c(O)c(O)c3)c2)[C@H](OC(=O)c2cc(O)c(O)c(OC(=O)c3cc(O)c(O)c(O)c3)c2)[C@@H](OC(=O)c2cc(O)c(O)c(OC(=O)c3cc(O)c(O)c(O)c3)c2)[C@@H]1OC(=O)c1cc(O)c(O)c(OC(=O)c2cc(O)c(O)c(O)c2)c1)c1cc(O)c(O)c(OC(=O)c2cc(O)c(O)c(O)c2)c1 [TANNIC ACID] and answer again.
1

Please answer likewise for CCCc1cc(=O)[nH]c(=S)[nH]1 [PROPYLTHIOURACIL]
0.8

----------
Organism: Rattus norvegicus
Experiment: Open TG-GATES - Regimen: Single
Assay type: toxicity, organism-based, Sprague-Dawley
Parameters: regimen Single, gender Male, age 6 weeks
Details: in vivo, po, 0 mg/kg, 6 h, tissue Plasma, route gavage, dose level Control
Please note: ALT exactly at 40 IU/L is f. Only values below 40 IU/L get t.

Some solved cases for reference:
{"MOLECULE": "O=C(OC[C@H]1O[C@@H](OC(=O)c2cc(O)c(O)c(OC(=O)c3cc(O)c(O)c(O)c3)c2)[C@H](OC(=O)c2cc(O)c(O)c(OC(=O)c3cc(O)c(O)c(O)c3)c2)[C@@H](OC(=O)c2cc(O)c(O)c(OC(=O)c3cc(O)c(O)c(O)c3)c2)[C@@H]1OC(=O)c1cc(O)c(O)c(OC(=O)c2cc(O)c(O)c(O)c2)c1)c1cc(O)c(O)c(OC(=O)c2cc(O)c(O)c(O)c2)c1", "CLASS NAME": "t"}
{"MOLECULE": "CCCc1cc(=O)[nH]c(=S)[nH]1", "CLASS NAME": "t"}
{"MOLECULE": "Nc1c2c(nc3ccccc13)CCCC2", "CLASS NAME": "t"}
{"MOLECULE": "COC(=O)C1=C(C)NC(C)=C(C(=O)OC)C1c1ccccc1[N+](=O)[O-]", "CLASS NAME": "f"}
{"MOLECULE": "Cc1nnc2n1-c1ccc(Cl)cc1C(c1ccccc1Cl)=NC2", "CLASS NAME": "t"}

Consider NC1=NC(=O)C(c2ccccc2)O1 (stereo not drawn) . Does its ALT lie strictly below 40 IU/L?
f

Same for CN/C(=N/CCSCc1nc[nH]c1C)NC#N
t

----------
Species on record: Rattus norvegicus
Assay: Open TG-GATES - Regimen: Single
Assay type: toxicity, organism-based, Sprague-Dawley
Design: regimen Single, gender Male, age 6 weeks
Conditions: in vivo, po, 0 mg/kg, 6 h, tissue Plasma, route gavage, dose level Control
Listed below: Cl values for each entry.
Report as a plain number; the unit meq/L is understood.

Some compounds with recorded Cl:
{"COMPOUND": "NC1=NC(=O)C(c2ccccc2)O1 (stereo not drawn) [PEMOLINE]", "Cl (meq/L)": 104.4}
{"COMPOUND": "Brc1ccccc1 [BROMOBENZENE]", "Cl (meq/L)": 107.4}
{"COMPOUND": "Cc1nnc2n1-c1ccc(Cl)cc1C(c1ccccc1Cl)=NC2 [TRIAZOLAM]", "Cl (meq/L)": 106.8}

Any idea what Cl was measured for CN/C(=N/CCSCc1nc[nH]c1C)NC#N [CIMETIDINE] ?
101.6

Next entry: CCOc1ccc(NC(C)=O)cc1 [PHENACETIN]
106

----------
# RALB per record follows
Species: Rattus norvegicus
Assay: Open TG-GATES - Regimen: Daily Repeat
Type: toxicity, organism-based, Sprague-Dawley
Set-up: regimen Daily Repeat, gender Male, age 6 weeks
Settings: in vivo, po, 300 mg/kg, […], tissue Plasma, route gavage, dose level Middle, time 7 day
Express your answer in g/dL, writing the number without its unit.

{"COMPOUND": "O=C(OC[C@H]1O[C@@H](OC(=O)c2cc(O)c(O)c(OC(=O)c3cc(O)c(O)c(O)c3)c2)[C@H](OC(=O)c2cc(O)c(O)c(OC(=O)c3cc(O)c(O)c(O)c3)c2)[C@@H](OC(=O)c2cc(O)c(O)c(OC(=O)c3cc(O)c(O)c(O)c3)c2)[C@@H]1OC(=O)c1cc(O)c(O)c(OC(=O)c2cc(O)c(O)c(O)c2)c1)c1cc(O)c(O)c(OC(=O)c2cc(O)c(O)c(O)c2)c1 [TANNIC ACID]", "OBSERVED MEASUREMENT": 3.7}

State the recorded RALB for this entry: CCOc1ccc(NC(C)=O)cc1 [PHENACETIN]
2.7

// next record Cc1nnc2n1-c1ccc(Cl)cc1C(c1ccccc1Cl)=NC2 [TRIAZOLAM]
2.6

Now the same for COC(=O)C1=C(C)NC(C)=C(C(=O)OC)C1c1ccccc1[N+](=O)[O-] [NIFEDIPINE]
2.8

And for CN/C(=N/CCSCc1nc[nH]c1C)NC#N [CIMETIDINE] ?
3.4

Can you handle CNC(=C[N+](=O)[O-])NCCSCc1ccc(CN(C)C)o1 [RANITIDINE] next?
3.4

----------
Organism: Rattus norvegicus
Assay: Open TG-GATES - Regimen: Daily Repeat
Type: toxicity, organism-based, Sprague-Dawley
Parameters: regimen Daily Repeat, gender Male, age 6 weeks
Details: in vivo, po, 100 mg/kg, […], tissue Plasma, route gavage, dose level Low, time 14 day
MEASURE NAME: TP

{"TEST SMILES": "COC(=O)C1=C(C)NC(C)=C(C(=O)OC)C1c1ccccc1[N+](=O)[O-]", "TP": "5.9 g/dL"}
{"TEST SMILES": "Cc1nnc2n1-c1ccc(Cl)cc1C(c1ccccc1Cl)=NC2", "TP": "5.8 g/dL"}
{"TEST SMILES": "O=C(OC[C@H]1O[C@@H](OC(=O)c2cc(O)c(O)c(OC(=O)c3cc(O)c(O)c(O)c3)c2)[C@H](OC(=O)c2cc(O)c(O)c(OC(=O)c3cc(O)c(O)c(O)c3)c2)[C@@H](OC(=O)c2cc(O)c(O)c(OC(=O)c3cc(O)c(O)c(O)c3)c2)[C@@H]1OC(=O)c1cc(O)c(O)c(OC(=O)c2cc(O)c(O)c(O)c2)c1)c1cc(O)c(O)c(OC(=O)c2cc(O)c(O)c(O)c2)c1", "TP": "6.1 g/dL"}

What value of measured TP is listed for CN/C(=N/CCSCc1nc[nH]c1C)NC#N ?
5.9 g/dL

Also CCOc1ccc(NC(C)=O)cc1 , if possible.
6 g/dL

Same again, this time with CNC(=C[N+](=O)[O-])NCCSCc1ccc(CN(C)C)o1
6 g/dL
